growth inhibition values, listed per item
# procedure details: NCI Yeast Anticancer Drug Screen. Data for the rad50 strain (AID 155);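 note: 0% = growth of vehicle-only cultures of the same strain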
# reported conditions: S. cerevisiae rad50 strain growth inhibition; at 50.0 µM (retest, dose inferred, filed as 5.0); active compounds read high
This is part of a sample that, as a whole, favours compounds with a hit. Of some 79,000 tested, about 15% had one in any assay.
measured property: growth inhibition (%)

Clc1ccc(C2=NCON=C2c2ccc(Cl)cc2)cc1 | 97
Cc1noc(NS(=O)(=O)c2ccc(N=Nc3cc(N=Nc4ccc(S(=O)(=O)Nc5onc(C)c5C)cc4)c4c(NC(=O)C(Cl)Cl)cccc4c3O)cc2)c1C (tested in a mixture with another compound) | 61
CN(C)[C@@H]1C(=O)C(C(=O)NCNc2nc3n[nH]nc3c(=O)[nH]2)=C(O)[C@@]2(O)C(=O)C3=C(O)c4c(O)cccc4[C@@](C)(O)[C@H]3C[C@@H]12 | 9
COc1cccc(OC)c1C(=O)/C=C/c1ccccc1 | 62
O=C(CS)Nc1ccccc1 | 89
OCCN1CCN(CCCN2c3cc(Cl)ccc3Sc3ccsc32)CC1 | 98
C[CH2][Sn]([CH2]C)([O]C(=O)c1ccccc1OC)[O][Sn]([CH2]C)([CH2]C)[O]C(=O)c1ccccc1OC | 78
N#CC1Sc2ccccc2N1C(=O)c1ccccc1 (stereo unspecified) | 3
C=CCc1cc([N+](=O)[O-])ccc1O | 80
Cc1ccc(SSCCCS(=O)O)cc1 | -93
CCN(CC)CCSCCCNc1cc(C)nc2c1ccc1c2ccc2c(NCCCSCCN(CC)CC)cc(C)nc21 | 92
COc1cccc2c1C(=O)c1c(O)c(CCl)cc(O)c1C2=O | 97
COc1ccc(C(C)(C)c2cc3c(cc2OCCO)OCO3)cc1 | 82
COc1ccc(-c2c(C#N)c(S)n(NS(=O)(=O)c3ccc(C)cc3)c(=O)c2C#N)cc1 | 89
N#CC(Nc1cccc(C(F)(F)F)c1)c1ccccc1C(F)(F)F (stereo unspecified) | 97
c1ccc2c(c1)oc1cc3c(cc12)CCCN3 | 97
CCN(CC)CCOC(=O)Nc1cc(Cl)cc(Cl)c1 | 68
C/C(O)=C(/C=N/C(=S)Nc1ccc(S(N)(=O)=O)cc1)C(=O)Nc1ccccc1C | 18
O=c1[nH]c2ccc([N+](=O)[O-])cc2c2ccc(Cl)cc12 | 9
CC(=O)C1=C(C)O/C(=C/c2ccc(Cl)cc2)C1=O | 94
COC(=O)c1cc2c(oc1=O)-c1ccccc1N(C=O)C2 | -8

----------
# procedure details: NCI Yeast Anticancer Drug Screen. Data for the mlh1 rad18 strain (AID 175)
# reported conditions: S. cerevisiae mlh1 rad18 strain growth inhibition; at 5.0 µM (retest, dose inferred, filed as 0.5)
Compounds without any hit were thinned out: in the full panel of roughly 79,000, 15% have a hit. Activity calls are given as the source filed them. Cut-off read from the data, not from the text of the source: active = growth inhibition above about 70%; inactive = the rest.
Classes used: Yes = active, No = inactive

O=C1/C(=C/c2cccc([N+](=O)[O-])c2)Sc2scc(-c3ccc([N+](=O)[O-])cc3)[n+]21 | No
Nc1ccc2c(c1)S(=O)(=O)c1cc(N)ccc1-2 | No
CCC(=O)Nc1ccc(NC(C)=O)cc1 | No
Clc1ccc(CN2CCN(Cc3ccc(Cl)cc3)C2c2ccc(Cl)cc2)cc1 | No
C(CCCCCN1CCCCC1)CCCCN1CCCCC1 | No
CN(C)CC(CN(C)C)C(=O)c1ccc2c(c1)OCO2 | No
Cc1ccnc2ccc3ccccc3c12 | No
CCC(C)(C)C(=O)OCC(=O)c1ccc(-c2ccccc2)cc1 | No
CN1CCN(C2=C(Cl)C3(OCCS3)C(F)(F)C2(F)F)CC1 (stereo not drawn) | No
N=C1C(=O)c2ccccc2-c2ccccc21 | No
O=C(/C=C/c1cc(O)c(O)cc1O)OCCc1ccccc1 | No
Oc1ccc(O)c(C2CCCCC2)c1 | Yes
Cc1ccc(S(=O)(=O)NNC(=O)c2sc(-c3nc(C)c(C(=O)NNS(=O)(=O)c4ccc(C)cc4)s3)nc2C)cc1 | No
OC(Cc1ccccc1)(Cc1ccccc1)c1ccccc1 | No
CCOc1ccccc1C(=O)OCc1ccccc1 | No
CN(C)[C@H]1CC[C@H]2[C@@H]3CCC4C[C@@H](NC(=O)NC(Cc5ccccc5)c5nccs5)CC[C@]4(C)[C@H]3CC[C@]12C (stereo partly drawn) | No
COc1cccc2c1C(=O)c1c(O)c3c(c(O)c1C2=O)CC(O)(C(=O)CO)CC3OC1CC(N)C(I)C(C)O1 (stereo not drawn) | Yes
CCCOC(=O)C(S)C(S)C(=O)OCCC (stereo not drawn) | No
COc1cccc(C(c2cc3c(cc2O)OCO3)N2CCCC2)c1O (stereo not drawn) | No
Nc1ccc(N)c2c1C(=O)c1ccccc1C2=O | No
O=S(=O)(O)c1ccc(N=Nc2ccc3c(S(=O)(=O)O)cccc3c2O)c2ccccc12 | No
Oc1ccc2ccccc2c1.[Cu+2] | No
COc1ccc2c(N3CCN(C(=O)C(Cl)(Cl)Cl)CC3)cc(C)nc2c1 | No

----------
# procedure details: NCI Yeast Anticancer Drug Screen. Data for the sgs1 mgt1 strain (AID 161);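 note: 0% = growth of cultures given vehicle only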
# reported conditions: S. cerevisiae sgs1 mgt1 strain, at 50.0 µM
Compounds without any hit were thinned out: in the full panel of roughly 79,000, 15% have a hit. Activity calls are given as the source filed them. Rule as the data show it: active = growth inhibition above about 70%; inactive = the rest.
Classes used: 1 = active, -1 = inactive

CCOc1cc2c(OCc3ccccc3)cc3c4cc(OC)c(OC)cc4c[n+](C)c3c2cc1OC | -1
S=C(Nc1ccc(Cl)c(Cl)c1)SC1CCCCC1 | 1
Cc1ccc(S(=O)(=O)NNC(=O)c2sc(-c3nc(C)c(C(=O)NNS(=O)(=O)c4ccc(C)cc4)s3)nc2C)cc1 | 1
CCN(CC)CCCNc1cccc2ccc(OC)nc12 | -1
C[n+]1c(/C=C/c2ccccc2Cl)ccc2ccccc21 | 1
CCCCCCCCCCCCCCCC[n+]1ccc(/C=C/c2ccccc2)cc1 | 1
COc1ccc(OC)c(/C=C/NC=O)c1 | -1
Cc1ccc(S(=O)(=O)Nc2ccccc2SSc2ccccc2NS(=O)(=O)c2ccc(C)cc2)cc1 | -1
CCOC(=O)N1C=CC(=C2C(=C3C=CN(C(=O)OCC)C=C3)C(=C3C=CN(C(=O)OCC)C=C3)C2=C2C=CN(C(=O)OCC)C=C2)C=C1 | -1
CS(=O)(=O)OCCN(CCOS(C)(=O)=O)c1ccc(C=Nc2ccc(-c3cnc(-c4ccc(Cl)cc4)s3)cc2)c(Cl)c1 | 1

----------
growth inhibition values, listed per item
# procedure details: NCI Yeast Anticancer Drug Screen. Data for the mec2-1 strain (AID 157)
# reported conditions: S. cerevisiae mec2-1 strain, at 50.0 µM, active compounds read high
Compounds without any hit were thinned out: in the full panel of roughly 79,000, 15% have a hit.
measured property: growth inhibition (%)

O=C1Nc2c(Cl)cc(Cl)cc2/C1=N/N=C/c1ccco1 | 53.4
Nc1nc(N)c2nc(CNc3ccc(C(=O)NC(CCC(=O)O)C(=O)O)cc3)ccc2n1 (stereo not given) | 64.2
Cc1cc2c(cc1O)CC[C@@H]1[C@@H]2CC[C@]2(C)[C@@H](O)CC[C@@H]12 | 35.2
O=C(Nc1ccccc1)OCCN=C1c2ccccc2CCc2ccccc21 | 76.2
CC1(C(=O)O)CCC2(C)CCC3(C)C(=CC(=O)C4C5(C)CCC(O)C(C)(C)C5CCC43C)C2C1 (stereo not given) | 64.8

----------
# procedure details: NCI Yeast Anticancer Drug Screen. Data for the mec2-1 strain (AID 157)
# reported conditions: S. cerevisiae mec2-1 strain, at 50.0 µM, active compounds read high
Compounds without any hit were thinned out: in the full panel of roughly 79,000, 15% have a hit.
measured property: growth inhibition (%)

CCN(CC)CCOc1ccc(-c2cc(-c3ccccc3)nc(N)n2)cc1 | 79.5
O=C(CC(=O)c1ccccc1)CC(O)(c1ccccc1)c1ccccc1 | 89.1
CCc1nc2c(O)ccc(O)c2nc1C | 62.9
NC(=S)N1N=C2c3ccccc3CCC[C@H]2[C@@H]1c1ccccc1 | 70.1
Nc1c(NCc2ccccc2)ccc2ncccc12 | 93.4
Oc1ccc(C(=C(Br)c2ccccc2)c2ccc(O)cc2)cc1 | 91.5
C=CC(=O)N1C/C(=C\c2ccc(F)cc2)C(=O)/C(=C/c2ccc(F)cc2)C1 | 26.1
CC1=C(C)C(=O)C(C(C)(C)CC(=O)n2cc(F)c(=O)[nH]c2=O)=C(C)C1=O | 97.5
O=S1(=O)c2ccccc2C(O)(c2ccccc2)c2cc3ccccc3n21 (stereo unspecified) | 95.5
Nc1nc(N)c2nc(Sc3ccc(F)cc3)c(N)nc2n1 | 39.2
Cc1ccc(S(=O)(=O)Nc2ccccc2SSc2ccccc2NS(=O)(=O)c2ccc(C)cc2)cc1 | 63.8

----------
growth inhibition values, listed per item
# procedure details: NCI Yeast Anticancer Drug Screen. Data for the mlh1 rad18 strain (AID 175)
# reported conditions: S. cerevisiae mlh1 rad18 strain growth inhibition; at 50.0 µM; active compounds read high
About 79,000 compounds went through this panel and 15% of them were active in at least one assay; those are over-represented in the sample as a whole.
measured property: growth inhibition (%)

COc1cccc2c1C(=O)c1c(O)c3c(c(O)c1C2=O)CC(O)(C(C)=O)CC3OC1CC(N/C(C)=C/C(C)=O)C(O)C(C)O1 (centres undefined) | 88.4
O=C1NC(O)c2cccc(Cl)c2O1 (centres undefined) | 98.3
CC1C[N+](C)(C)C(C)C(=O)C1(c1ccccc1)c1ccccc1 (centres undefined) | 19.1
O=C(C(/C=N/C(=S)NCc1ccccc1)=C(/O)c1ccccc1)c1ccccc1 | 98.7
CC1CCN(C(=S)NNC(C)c2cc3ccccc3cn2)CC1 (centres undefined) | 86.8
O=C(CNc1ccccc1[N+](=O)[O-])Nn1c(-c2ccccc2)nc2ccccc2c1=O | 75.5
c1ccc(N/N=C2/CCCC3/C(=N\Nc4ccccc4)CCCC23)cc1 (centres undefined) | 96.1
O=c1c2ccccc2sc2c([N+](=O)[O-])ccc(NCCNCCO)c12 | 83.3
[O-]c1c2cc(-[n+]3c(-c4ccccc4)cc(-c4ccccc4)cc3-c3ccccc3)cc1CO[C@@H](c1ccccc1)[C@H](c1ccccc1)OCCOCCO[C@@H](c1ccccc1)[C@H](c1ccccc1)OC2 | 29.6
